Data provenance: patent US12691070B2

System: RAW 264.7 cells
Assay: In vitro toxicity (CellTiter-Glo cell viability), RAW 264.7;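 also: percent of untreated cells luminescence signal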
Format: cell-based
Conditions: cirRNA (SEQ ID NO: 1) LNPs; RAW 264.7 cells
Quick rule for you: In vitro Viability RAW at 80% or higher means 1 (yes), lower means 0 (no).

These solved cases illustrate the format of a correct answer.
compound="CCCCCCCCC(CCCCCC)C(=O)OCCCCCCCCN(CCCCCCCCOC(=O)C(CCCCCC)CCCCCCCC)CCCOC(=O)NCCCN(C)C (stereo not drawn)" assigned_label="0 (no)"
compound=CCCCCCCCCCCOC(=O)CCCCCN(CCCCCCCC(=O)OC(CCCCCCCC)CCCCCCCC)CCOC(=O)NCCN1CCCCC1 assigned_label="1 (yes)"
compound="CCCCCCCC/C=C\\CCCCCCCCN(CCCCCCCCOC(=O)C(CCCCCC)CCCCCCCC)CCOC(=O)NCCN1CCCC1 (stereo not drawn)" assigned_label="0 (no)"
compound="CCCCCCCCC(CCCCCCCC)OC(=O)CCCCCCCN(CCCCCCCCOC(=O)C(CCCCCC)CCCCCCCC)CCCOC(=O)NCCN1CCC1 (stereo not drawn)" assigned_label="0 (no)"
compound="CCCCCCCCCCC(CCCCCCCC)COC(=O)CCCCCN(CCCCCC(=O)OCC(CCCCCCCC)CCCCCCCCCC)CCCOC(=O)NCc1ncc[nH]1 (stereo not drawn)" assigned_label="1 (yes)"

Task: Could you verify whether the entry CCCCCCCCCC(=O)OCCCCCCCN(CCCCCCCCOC(=O)C(CCCCCC)CCCCCCCC)CCCOC(=O)NCCCn1ccnc1 (stereo not drawn) shows In vitro Viability RAW of no less than 80%?
Result: 1 (yes)
